Data provenance is patent US8436011B2.

Field: melting point. Provide a value for each of the molecules that follow.
Structures can show the parent of a compound that is named as a salt.
One number for each entry, in °C.

Field: example entries. Status: answers known.
molecule	melting point [°C]
CCN1CCCC1CNC(=O)CCc1ccc(-c2ccc3c(=O)c(C(=O)NC)c(N)n(CC)c3n2)cc1 (stereo not shown) [compound 46]	218
CCN1CCC[C@H]1CNC(=O)Cc1ccc(-c2ccc3c(=O)c(C(=O)NC)c(N)n(CC)c3n2)cc1 [compound 15]	262

Pending molecule:
The molecule listed as CCn1c(N)c(C(=O)NC)c(=O)c2ccc(-c3ccc(CC(=O)NCC4COCCN4C4CC4)cc3)nc21 (stereo not shown) (as salt: HCl) [compound 33] shows melting point equal to 250

###

Counter-ions that a name gives are not always drawn.
Field: melting point. Provide a value for each of the compounds that follow.
Answers are plain numbers, in °C.

compound	value_unit	quantitative_readout
CCn1c(N)c(C(=O)NC)c(=O)c2ccc(-c3ccc(CC(=O)NCCc4cccnc4)cc3)nc21 (as salt: HCl)	°C	222

# map each compound to its melting point
1. CCn1c(N)c(C(=O)NC)c(=O)c2ccc(-c3ccc(CCNc4ccccn4)cc3)nc21 (as salt: HCl)
2. CCn1c(N)c(C(=O)NC)c(=O)c2ccc(-c3ccc(CC(=O)NCCOC)cc3)nc21
3. CCN1CCOCC1CNC(=O)Cc1ccc(-c2ccc3c(=O)c(C(=O)NC)c(N)n(CC)c3n2)cn1 (stereo not drawn) (as salt: HCl)

242
262
199

# map each compound to its melting point
1. CCn1c(N)c(C(=O)NC)c(=O)c2ccc(-c3ccc(CC(=O)NC(C)C)cc3)nc21
2. CCN1CCC[C@@H]1CNC(=O)Cc1ccc(-c2ccc3c(=O)c(C(=O)NC)c(N)n(CC(C)C)c3n2)cc1
3. CCn1c(N)c(C(=O)NC)c(=O)c2ccc(-c3ccc(CC(=O)NCc4ccccn4)cc3)nc21 (as salt: HCl)
4. CCN1CCC[C@@H]1CNC(=O)Cc1ccc(-c2ccc3c(=O)c(C(=O)NC)c(N)n(CC)c3n2)cc1
5. CCn1c(N)c(C(=O)NC)c(=O)c2ccc(-c3ccc(CC(=O)Nc4ccccc4)cc3)nc21
6. CCCNC(=O)c1c(N)n(CC)c2nc(-c3ccc(CC(=O)NCC4CCCN4CC)cc3)ccc2c1=O (stereo not drawn)
7. CCn1c(N)c(C(=O)NC)c(=O)c2ccc(-c3ccc(CC(=O)NCCCc4ccccc4)cc3)nc21

[315, 233, 268, 270, 299, 264, 278]

# map each compound to its melting point
1. CCN1CCCC1CNC(=O)Cc1ccc(-c2ccc3c(=O)c(C(=O)NC)c(N)n(CC4CC4)c3n2)cc1 (stereo not drawn)
2. CCN1CCCC1CNC(=O)Cc1ccc(-c2ccc3c(=O)c(C(=O)NC)c(N)n(CC)c3n2)cc1F (stereo not drawn)
3. CCN1C[C@H](F)C[C@H]1CNC(=O)Cc1ccc(-c2ccc3c(=O)c(C(=O)NC)c(N)n(CC)c3n2)cc1 (as salt: HCl)

1. 260
2. 275
3. 170

###

Structures can show the parent of a compound that is named as a salt.
attribute_measured: melting point

Field: example entries. Status: answers known.
compound	attribute_measured	result
CCn1c(N)c(C(=O)NC)c(=O)c2ccc(-c3ccc(CC(=O)NC[C@H]4CCCN4CC(F)F)cc3)nc21 (as salt: HCl) [compound 31]	melting point	214 to 228 °C
CCn1c(N)c(C(=O)NC)c(=O)c2ccc(-c3ccc(CC(=O)NC[C@H]4CCCN4CC(F)(F)F)cc3)nc21 [compound 30]	melting point	> 260 °C
CCn1c(N)c(C(=O)NC)c(=O)c2ccc(-c3ccc(CC(=O)NC[C@H]4CCCN4CCF)cn3)nc21 (as salt: HCl) [compound 29]	melting point	194 °C
CCn1c(N)c(C(=O)NC)c(=O)c2ccc(-c3ccc(CC(=O)NCCc4ccccc4)cc3)nc21	melting point	270 °C
CCN1CCCC1CNC(=O)CCCCc1ccc(-c2ccc3c(=O)c(C(=O)NC)c(N)n(CC)c3n2)cc1 (stereo not shown) [compound 51]	melting point	180 °C
CCn1c(N)c(C(=O)NC)c(=O)c2ccc(-c3cccc(CC(=O)Nc4ccccn4)c3)nc21 (as salt: HCl) [compound 63]	melting point	176 °C
CCN1CCC[C@@H]1CNC(=O)Cc1ccc(-c2ccc3c(=O)c(C(=O)NC)c(N)n(CC)c3n2)c(F)c1 [compound 56]	melting point	253 °C
CCn1c(N)c(C(=O)NC)c(=O)c2ccc(-c3ccc(CC(=O)Nc4ccccn4)cc3)nc21 (as salt: HCl) [compound 4]	melting point	258 °C
CCn1c(N)c(C(=O)NC)c(=O)c2ccc(-c3ccc(CC(=O)NC[C@H]4CCCN4CC(F)F)cn3)nc21 (as salt: HCl) [compound 34]	melting point	260 °C
CCn1c(N)c(C(=O)NC)c(=O)c2ccc(-c3ccc(CC(=O)NC[C@H]4CCCN4S(C)(=O)=O)cc3)nc21 [compound 28]	melting point	> 260 °C

# map each compound to its melting point
1. CCn1c(N)c(C(=O)NC)c(=O)c2ccc(-c3ccc(CC(=O)NC4CCCC4)cc3)nc21
2. CCn1c(N)c(C(=O)NC)c(=O)c2ccc(-c3ccc(CC(=O)Nc4cnccn4)cc3)nc21 [compound 13]

["300 °C", "290 °C"]

# map each compound to its melting point
1. CCn1c(N)c(C(=O)NC)c(=O)c2ccc(-c3ccc(CC(=O)NCCc4cccn4C)cc3)nc21 [compound 42]
2. CCN1CCCC1CNC(=O)CCCc1ccc(-c2ccc3c(=O)c(C(=O)NC)c(N)n(CC)c3n2)cc1 (stereo not shown) [compound 47]
3. CCN1CCCC1CNC(=O)Cc1csc(-c2ccc3c(=O)c(C(=O)NC)c(N)n(CC)c3n2)n1 (stereo not shown) (as salt: HCl) [compound 43]

1: 252 °C; 2: 230 °C; 3: 228 °C

# map each compound to its melting point
1. CCN1CCC[C@@H]1CNC(=O)Cc1nc(-c2ccc3c(=O)c(C(=O)NC)c(N)n(CC)c3n2)cs1 [compound 55]
2. CCn1c(N)c(C(=O)NC)c(=O)c2ccc(-c3ccc(CC(=O)Nc4ccncc4)cc3)nc21 (as salt: HCl)
3. CCn1c(N)c(C(=O)NC)c(=O)c2ccc(-c3ccc(CC(=O)NCC4COCCN4C(C)C)cc3)nc21 (stereo not shown) (as salt: HCl) [compound 32]

1: 214 °C; 2: 250 °C; 3: 192 °C

# map each compound to its melting point
1. CCn1c(N)c(C(=O)NC)c(=O)c2ccc(-c3ccc(CC(=O)NC[C@H]4CCCN4CCF)cc3)nc21 (as salt: hydrochloride) [compound 27]
2. CCn1c(N)c(C(=O)NC)c(=O)c2ccc(-c3ccc(CC(=O)NCc4cncn4C)cc3)nc21 (as salt: HCl) [compound 36]

["180 °C", "270 °C"]

# map each compound to its melting point
1. CCN1CCCC1CNC(=O)Cc1ccc(-c2ccc3c(=O)c(C(=O)NC)c(N)n(CC)c3n2)cc1Cl (stereo not shown) (as salt: HCl) [compound 57]
2. CCn1c(N)c(C(=O)NC)c(=O)c2ccc(-c3ccc(CC(=O)Nc4ccccn4)nc3)nc21 [compound 21]
3. CCn1c(N)c(C(=O)NC)c(=O)c2ccc(-c3ccc(CC(=O)Nc4cc(F)cc(F)c4)cc3)nc21 [compound 6]

228 °C
266 °C
> 260 °C

# map each compound to its melting point
1. CCN1CC(F)(F)C[C@H]1CNC(=O)Cc1ccc(-c2ccc3c(=O)c(C(=O)NC)c(N)n(CC)c3n2)cc1 (as salt: HCl) [compound 24]
2. CCn1c(N)c(C(=O)NC)c(=O)c2ccc(-c3ccc(CC(=O)Nc4nccs4)cc3)nc21 [compound 35]
3. CCN1CCCC1CNC(=O)Cc1ccc(-c2ccc3c(=O)c(C(=O)NC)c(N)n(C4CCCC4)c3n2)cc1 (stereo not shown) [compound 50]
4. CCN1CCCC1CNC(=O)Cc1ccc(-c2ccc3c(=O)c(C(=O)NC)c(N)n(CC)c3n2)c(C)c1 (stereo not shown) [compound 61]
5. CCn1c(N)c(C(=O)NC)c(=O)c2ccc(-c3ccc(CC(=O)Nc4cccnc4)cc3)nc21 (as salt: HCl) [compound 3]

["266 °C", "303 °C", "222 °C", "178 °C", "270 °C"]

###

# test_target: fusion protein Tel/PDGF-Rβ (BaF3 Tel/PDGF cells) (Homo sapiens, UniProt P09619)
# Construct: the transmembrane and intracellular part of the PDGF-Rβ receptor; N-terminal part of the Tel transcription factor (ETV6); the other entry of the earlier key: ETV6 (P41212, Transcription factor ETV6)
# Sequence (P09619 with tags, fused parts or gaps): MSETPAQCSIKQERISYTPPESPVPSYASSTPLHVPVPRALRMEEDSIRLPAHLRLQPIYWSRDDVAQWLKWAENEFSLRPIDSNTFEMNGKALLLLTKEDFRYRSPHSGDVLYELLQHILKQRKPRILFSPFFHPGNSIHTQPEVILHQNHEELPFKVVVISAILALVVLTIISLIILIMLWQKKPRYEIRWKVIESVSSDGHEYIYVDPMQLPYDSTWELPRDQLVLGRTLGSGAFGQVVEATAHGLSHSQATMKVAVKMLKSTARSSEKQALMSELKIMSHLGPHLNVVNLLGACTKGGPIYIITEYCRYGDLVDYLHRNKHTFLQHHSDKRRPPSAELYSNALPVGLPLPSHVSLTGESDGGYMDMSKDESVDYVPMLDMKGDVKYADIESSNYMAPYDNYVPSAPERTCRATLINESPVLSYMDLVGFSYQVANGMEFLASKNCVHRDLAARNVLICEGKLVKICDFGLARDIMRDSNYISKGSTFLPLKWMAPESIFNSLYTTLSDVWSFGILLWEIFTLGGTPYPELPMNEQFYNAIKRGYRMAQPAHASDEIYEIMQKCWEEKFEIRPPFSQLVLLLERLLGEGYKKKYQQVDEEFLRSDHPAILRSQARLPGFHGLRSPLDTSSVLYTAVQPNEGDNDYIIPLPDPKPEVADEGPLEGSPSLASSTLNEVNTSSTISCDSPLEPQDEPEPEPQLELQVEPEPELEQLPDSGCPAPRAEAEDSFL
# measurement_protocol: Inhibition of PDGF-Rβ tyrosine kinase activity: proliferation of BaF3 Tel/PDGF cells (CellTiter-Glo, 72 h)
# details: 72 hours incubation, read-out: IC50 (concentration that inhibits 50% of the proliferation of the BaF3 Tel/PDGF cells)
pIC50: −log10 of the molar value.
# if value of pIC50 reaches 8, tag Criterion met; if it stays below, tag Criterion not met

molecule	cat
CCN1CCOCC1CNC(=O)Cc1ccc(-c2ccc3c(=O)c(C(=O)NC)c(N)n(CC)c3n2)cc1 (stereo not shown)	Criterion met
CCCNC(=O)c1c(N)n(CC)c2nc(-c3ccc(CC(=O)NCC4CCCN4CC)cc3)ccc2c1=O (stereo not shown)	Criterion not met

Decide: is the reported value of pIC50 for CCn1c(N)c(C(=O)NC)c(=O)c2ccc(-c3ccc(CC(=O)NCC4COCCN4C4CC4)cc3)nc21 (stereo not shown) equal to or greater than 8?
Criterion met

Decide: is the reported value of pIC50 for "CCn1c(N)c(C(=O)NC)c(=O)c2ccc(-c3ccc(CC(=O)Nc4ccccn4)cn3)nc21" equal to or greater than 8?
Criterion not met

Decide: is the reported value of pIC50 for "CCn1c(N)c(C(=O)NC)c(=O)c2ccc(-c3ccc(CC(=O)Nc4nccs4)cc3)nc21" equal to or greater than 8?
Criterion met
